Target: MEK2 (Homo sapiens, UniProt P36507, S222E/S226D)
Construct: 6-histidine tag (N); E. coli for ERK1
Sequence (P36507 with tags, fused parts or gaps S222E/S226D): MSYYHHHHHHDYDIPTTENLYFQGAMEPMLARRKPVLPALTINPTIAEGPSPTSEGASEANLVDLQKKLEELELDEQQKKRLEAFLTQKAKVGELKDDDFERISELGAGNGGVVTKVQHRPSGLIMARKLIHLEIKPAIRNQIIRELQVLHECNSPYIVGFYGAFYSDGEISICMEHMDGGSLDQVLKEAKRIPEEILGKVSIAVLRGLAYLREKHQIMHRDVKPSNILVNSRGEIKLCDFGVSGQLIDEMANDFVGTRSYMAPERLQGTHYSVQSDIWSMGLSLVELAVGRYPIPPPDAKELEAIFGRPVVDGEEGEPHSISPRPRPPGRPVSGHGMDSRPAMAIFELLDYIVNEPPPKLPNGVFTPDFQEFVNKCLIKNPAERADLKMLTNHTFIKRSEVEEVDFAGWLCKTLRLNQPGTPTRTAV
Test: MEK2 inhibition assay, fluorescence polarization with IMAP beads (ERK1 / FI-Erktide substrate)
Details: 4 nM MEK2, 25 nM ERK1, 400 μM ATP, 500 nM FI-Erktide, 1% DMSO, 22 min at room temperature; values given as ranges; read-out: IC50 of Exemplified Compounds Against MEK2
# IC50 per record follows

# compound smiles, value observed
records = [
    ("Cn1c(Nc2ccc(I)cc2F)c(C(=O)NCCN2CCCC2)c(=O)n(C)c1=O", "2.5 to 25 µM"),
]

## Task Field request: IC50 | item: CN(C)NC(=O)c1c(Nc2ccc(I)cc2F)n(C)c(=O)n(C)c1=O
## Result 0.501 to 2.5 µM

## Task Field request: IC50 | item: Cn1c(Nc2ccc(I)cc2F)c(C(=O)N2CCN(CCO)CC2)c(=O)n(C)c1=O
## Result > 25 µM

## Task Field request: IC50 | item: Cn1c(Nc2ccc(Br)cc2F)c(C(N)=O)c(=O)n(C)c1=O
## Result 2.5 to 25 µM

## Task Field request: IC50 | item: CC(=O)OCC(=O)c1c(Nc2ccc(I)cc2F)n(C)c(=O)n(C)c1=O
## Result > 25 µM

## Task Field request: IC50 | item: Cn1c(Nc2ccc(I)cc2F)c(C(=O)N2CC(O)C2)c(=O)n(C)c1=O
## Result 2.5 to 25 µM

## Task Field request: IC50 | item: Cn1c(Nc2ccc(I)cc2F)c(C(=O)NOC[C@H](O)CCO)c(=O)n(C)c1=O
## Result 0.501 to 2.5 µM

## Task Field request: IC50 | item: Cn1c(Nc2ccc(I)cc2F)c(C(=O)NO)c(=O)n(C)c1=O
## Result ≤ 0.5 µM

## Task Field request: IC50 | item: Cn1c(Nc2ccc(I)cc2F)c(C(=O)NOCC[C@H](O)CO)c(=O)n(C)c1=O
## Result 2.5 to 25 µM

## Task Field request: IC50 | item: CONC(=O)c1c(Nc2ccc(I)cc2F)n(C)c(=O)n(C)c1=O
## Result 0.501 to 2.5 µM

## Task Field request: IC50 | item: Cn1c(Nc2ccc(I)cc2F)c(C(N)=O)c(=O)n(C)c1=O
## Result ≤ 0.5 µM

## Task Field request: IC50 | item: CCn1c(=O)c(C(=O)NOCCO)c(Nc2ccc(I)cc2F)n(C)c1=O
## Result > 25 µM
